- assay-target: human recombinant Yes [a.a. 2–543 (end)] (Homo sapiens)
- Construct: human recombinant Yes [a.a; 2–543 (end)]; purchased BPS Bioscience 40488
- procedure-text: ADP-Glo kinase assay, IC50 determination (dose-response curves) for Yes
- Assay type: biochemical
- settings: IC50 determination
- Description: All inhibitory assays of the phosphorylation activity of Yes were performed in accordance with the Promega Technical Manual for the ADP-Glo™ Kinase Assay (Fitchburg, WI, USA. Catalog number: V9102). The human recombinant Yes [a.a. […] The screening was conducted in three steps consisting of the first screening, the second screening, and the IC50 determination, as can be illustrated in Fig. 1b. First, we determined the inhibition rates of the 1,991 compounds. […]
measured-property: dose-response relationship (DRR)

[[record]]
molecule = "COc1ccc(Br)cc1/C=N/Nc1ncnc2nc[nH]c12"
observed_value = "did not reveal a DRR"

[[record]]
molecule = "O=C(CSc1ccc2ccccc2n1)Nc1nsc(-c2ccc(Cl)cc2)n1"
observed_value = "good DRR"

[[record]]
molecule = "CC(=O)Nc1ccc(/C=N/Nc2ncnc3cc(-c4ccc(F)cc4)sc23)cc1"
observed_value = "did not reveal a DRR"

[[record]]
molecule = "CCCC(C)c1cc(NC(=O)c2ccc(N3CCNC3=O)cc2)n[nH]1 (stereo not drawn)"
observed_value = "did not reveal a DRR"

[[record]]
molecule = "Fc1ccc(-c2cc3ncnc(N/N=C/c4ccncc4)c3s2)cc1"
observed_value = "did not reveal a DRR"

[[record]]
molecule = "Cc1cc(N2CCc3c(ncn3C3CC3)C2)c2cc(OC(F)F)ccc2n1"
observed_value = "good DRR"


###

- assay-target: human recombinant Yes [a.a. 2–543 (end)] (Homo sapiens, UniProt P07947)
- Construct: human recombinant Yes [a.a; 2–543 (end)]; purchased BPS Bioscience 40488
- Sequence (P07947 2-543): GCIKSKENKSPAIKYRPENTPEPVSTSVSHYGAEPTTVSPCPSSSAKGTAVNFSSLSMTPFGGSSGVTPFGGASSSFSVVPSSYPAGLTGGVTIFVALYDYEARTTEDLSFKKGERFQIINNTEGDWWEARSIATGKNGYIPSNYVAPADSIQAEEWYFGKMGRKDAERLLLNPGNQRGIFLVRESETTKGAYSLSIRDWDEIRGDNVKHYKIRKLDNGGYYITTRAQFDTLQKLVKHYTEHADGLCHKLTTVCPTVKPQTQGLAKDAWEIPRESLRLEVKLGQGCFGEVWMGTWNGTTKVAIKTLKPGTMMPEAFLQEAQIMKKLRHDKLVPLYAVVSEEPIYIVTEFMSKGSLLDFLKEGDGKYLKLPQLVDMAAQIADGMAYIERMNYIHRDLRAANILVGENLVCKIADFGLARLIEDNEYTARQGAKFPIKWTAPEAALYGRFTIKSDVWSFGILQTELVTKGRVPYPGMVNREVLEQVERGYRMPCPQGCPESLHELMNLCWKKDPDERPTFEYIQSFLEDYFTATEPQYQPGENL
- procedure-text: ADP-Glo kinase assay, inhibition rates of Yes phosphorylation activity (first and second screening)
- Format: biochemical
- settings: first screening; mean of n = 4 wells; 10 μmol L−1 compound
Reported First screening IR (inhibition rate) values for a set of compounds
measured-property: First screening IR (inhibition rate)

[[record]]
compound = "COc1ccc(/C=C2/CN(C)Cc3c2nc2ccccc2c3C(=O)O)cc1"
measured_property = "First screening IR (inhibition rate)"
observed_value = "-7%"

[[record]]
compound = "O=C(CN1CCN(c2cc(C(=O)N3CCOCC3)c3ccccc3n2)CC1)Nc1ccccc1Cl"
measured_property = "First screening IR (inhibition rate)"
observed_value = "39%"

[[record]]
compound = "CC(C)CN1CCOC(CNC(=O)c2cc3cc(F)ccc3[nH]2)C1 (stereo not shown)"
measured_property = "First screening IR (inhibition rate)"
observed_value = "-5%"

[[record]]
compound = "CCOC(=O)c1c(-c2ccc(OC)cc2)csc1NC(=O)CN1CCN(c2cccc(OC)c2)CC1"
measured_property = "First screening IR (inhibition rate)"
observed_value = "9%"


###

Below, each of the compounds is paired with its reported First screening IR (inhibition rate) value.
- assay-target: human recombinant Yes [a.a. 2–543 (end)] (Homo sapiens, UniProt P07947)
- Construct: human recombinant Yes [a.a; 2–543 (end)]; purchased BPS Bioscience 40488
- procedure-text: ADP-Glo kinase assay, inhibition rates of Yes phosphorylation activity (first and second screening)
- Format: biochemical
- settings: first screening; mean of n = 4 wells; 10 μmol L−1 compound
measured-property: First screening IR (inhibition rate) (%)

[[record]]
compound = "CN(C)c1nc(N)nc(COc2ccc3cc(Br)ccc3c2)n1"
measured_property = "First screening IR (inhibition rate)"
observed_value = 5

[[record]]
compound = "CCN1CCN(c2nc3ccccc3nc2C(C#N)C(=O)NCCc2ccc(OC)c(OC)c2)CC1 (stereo not drawn)"
measured_property = "First screening IR (inhibition rate)"
observed_value = 38

[[record]]
compound = "CC(SCc1nc(N)nc(N(C)C)n1)C(=O)Nc1ccc2c(c1)CCC2 (stereo not drawn)"
measured_property = "First screening IR (inhibition rate)"
observed_value = 5

[[record]]
compound = "Cc1cn2c(/C=C/C(=O)c3ccc(OCC(=O)N(C)C)cc3)c(C)nc2s1"
measured_property = "First screening IR (inhibition rate)"
observed_value = -2

[[record]]
compound = "CC1CN(c2nccnc2C#N)CCN1C(=O)c1cccc(OCc2ccc(F)cc2)c1 (stereo not drawn)"
measured_property = "First screening IR (inhibition rate)"
observed_value = 35

[[record]]
compound = "Cc1cc(SCC(=O)c2cc(C)n(-c3ccccc3F)c2C)nc2ccccc12"
measured_property = "First screening IR (inhibition rate)"
observed_value = 5

[[record]]
compound = "Cc1c(C#N)c(NC(=O)CN2CCN(c3ncnc4c3cnn4C)CC2)n(Cc2ccccc2)c1C"
measured_property = "First screening IR (inhibition rate)"
observed_value = 13

[[record]]
compound = "OCCNc1ncnc2c1c(-c1ccccc1)cn2-c1ccc(F)cc1"
measured_property = "First screening IR (inhibition rate)"
observed_value = -6

[[record]]
compound = "N#CCCn1ncc2c(NCc3ccc4c(c3)OCCO4)ncnc21"
measured_property = "First screening IR (inhibition rate)"
observed_value = 2

[[record]]
compound = "CCCOc1cc(/C=C2/C(=O)Nc3ccc(Cl)cc32)ccc1OC"
measured_property = "First screening IR (inhibition rate)"
observed_value = 9

[[record]]
compound = "O=S1(=O)CC=C(S(=O)(=O)N2CCCC2)C1"
measured_property = "First screening IR (inhibition rate)"
observed_value = 6

[[record]]
compound = "Cc1c(/C=C2/C(=O)Nc3ccc(F)cc32)cnn1C"
measured_property = "First screening IR (inhibition rate)"
observed_value = 31

[[record]]
compound = "CC(SCc1nc(N)nc(N(C)C)n1)C(=O)Nc1ccc(F)cc1F (stereo not drawn)"
measured_property = "First screening IR (inhibition rate)"
observed_value = -5

[[record]]
compound = "COCCn1cnc2c1c(=O)n(CC(=O)NC(=O)NC1CCCCC1C)c(=O)n2Cc1ccccc1 (stereo not drawn)"
measured_property = "First screening IR (inhibition rate)"
observed_value = -2

[[record]]
compound = "CC(C)(C)C1C/C(=C/c2ccc3c(c2)OCO3)c2nc3ccccc3c(C(=O)O)c2C1 (stereo not drawn)"
measured_property = "First screening IR (inhibition rate)"
observed_value = 8

[[record]]
compound = "Cl.Fc1ccc(-c2cc(-c3ccccc3)c3ccccc3n2)cc1"
measured_property = "First screening IR (inhibition rate)"
observed_value = 18

[[record]]
compound = "Cl.Oc1ccc(O)c(-c2cc(-c3ccccc3Cl)c3cc(Cl)ccc3n2)c1"
measured_property = "First screening IR (inhibition rate)"
observed_value = 25

[[record]]
compound = "COC(=O)c1c(Nc2nc3ccccc3nc2N2CCN(C/C=C/c3ccccc3)CC2)sc(C)c1C"
measured_property = "First screening IR (inhibition rate)"
observed_value = 11

[[record]]
compound = "Cc1ccc(-n2c(C)c(C=O)c3c2CCc2cn(-c4ccccc4)nc2-3)cc1"
measured_property = "First screening IR (inhibition rate)"
observed_value = -7

[[record]]
compound = "Cc1c(C#N)c(NC(=O)CN2CCN(CC(=O)N3CCCCC3)CC2)n(-c2cccc(F)c2)c1C"
measured_property = "First screening IR (inhibition rate)"
observed_value = 0

[[record]]
compound = "CC(C)(C)c1ncc(C(=O)Nc2ccc(F)c(NC(=O)C3CC3)c2)s1"
measured_property = "First screening IR (inhibition rate)"
observed_value = -24

[[record]]
compound = "C#CC(C)(C)N(C)S(=O)(=O)c1ccc(S(C)(=O)=O)cc1"
measured_property = "First screening IR (inhibition rate)"
observed_value = -10

[[record]]
compound = "O=S(=O)(c1ccc(Br)cc1Cl)N1CCN(Cc2cn3ccccc3n2)CC1"
measured_property = "First screening IR (inhibition rate)"
observed_value = -1

[[record]]
compound = "CCN(CC)S(=O)(=O)c1ccc(S(=O)(=O)N(C)C(C)C)cc1"
measured_property = "First screening IR (inhibition rate)"
observed_value = 11

[[record]]
compound = "FC(F)(F)c1ccnc(Nc2ccc3nc(N4CCCC4)sc3c2)n1"
measured_property = "First screening IR (inhibition rate)"
observed_value = 22

[[record]]
compound = "Cc1c(C(=O)Nc2ccc3c(ccn3CCN3CCOCC3)c2)nnn1-c1ccc(F)cc1"
measured_property = "First screening IR (inhibition rate)"
observed_value = -11

[[record]]
compound = "O=C(Cc1ccc(F)cc1)N1CCN(S(=O)(=O)Cc2ccccc2)CC1"
measured_property = "First screening IR (inhibition rate)"
observed_value = -2

[[record]]
compound = "O=C(CCC(=O)N1CCC(c2ccccc2)=N1)NCc1cccc(Cl)c1"
measured_property = "First screening IR (inhibition rate)"
observed_value = 30

[[record]]
compound = "CC(NCc1ccc(CN2CCN(C)CC2)cc1)c1cccc(CO)c1 (stereo not drawn)"
measured_property = "First screening IR (inhibition rate)"
observed_value = -4

[[record]]
compound = "CCOc1ccc(-c2nc3ccccc3c(-c3ccccc3)c2Cl)cc1.Cl"
measured_property = "First screening IR (inhibition rate)"
observed_value = 51

[[record]]
compound = "CCNC(=O)c1ccc(NC(C)C(O)c2ccc(F)cc2)nc1 (stereo not drawn)"
measured_property = "First screening IR (inhibition rate)"
observed_value = 35

[[record]]
compound = "COc1ccccc1NC(=O)c1ccc(NC(=O)COc2ccc(-n3cnnn3)cc2)cc1"
measured_property = "First screening IR (inhibition rate)"
observed_value = 17

[[record]]
compound = "CCCC(C)c1cc(NC(=O)c2ccc(N3CCNC3=O)cc2)n[nH]1 (stereo not drawn)"
measured_property = "First screening IR (inhibition rate)"
observed_value = 29

